In this section we review reported IC50 values for a set of molecules.
target: Glycogen synthase kinase-3 alpha (Homo sapiens, UniProt P49840)
Sequence (P49840 whole entry): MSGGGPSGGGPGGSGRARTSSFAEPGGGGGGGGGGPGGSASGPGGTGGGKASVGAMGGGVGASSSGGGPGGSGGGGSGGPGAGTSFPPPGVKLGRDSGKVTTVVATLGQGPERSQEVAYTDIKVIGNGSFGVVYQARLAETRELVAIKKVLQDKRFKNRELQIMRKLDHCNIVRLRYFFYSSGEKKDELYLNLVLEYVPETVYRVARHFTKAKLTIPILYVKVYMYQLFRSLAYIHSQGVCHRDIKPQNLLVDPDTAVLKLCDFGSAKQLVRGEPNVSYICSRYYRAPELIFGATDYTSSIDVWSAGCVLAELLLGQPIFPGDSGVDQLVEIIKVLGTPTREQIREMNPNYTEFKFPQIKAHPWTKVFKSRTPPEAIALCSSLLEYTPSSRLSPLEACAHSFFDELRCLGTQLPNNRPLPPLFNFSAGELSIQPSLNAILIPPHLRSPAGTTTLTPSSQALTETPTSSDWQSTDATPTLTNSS

Answered cases to consult:
**Q:** Sample CC1(C)CC(=O)C2=C(C1)NC1=C(CN=N1)C21COC2(CN(C(=O)C(C)(C)F)C2)C1 (configuration not stated) [US20250313563, Compound 947276] — what was its IC50?
**A:** < 100 nM

**Q:** Now consider CC[C@@]1(c2cccc(N(C)C(C)=O)c2)C2=CN=NC2NC2=C1C(=O)CC(C)(C)C2 (some centres not stated) [US20250313563, Compound 810359] and answer again.
**A:** > 5000 nM

**Q:** Please do the same for CC[C@]1(c2cccc(-c3c(C)cncc3C)c2)C2=CN=NC2NC2=C1C(=O)NC(C)(C)C2 (some centres not stated) [US20250313563, Compound 948829] as well.
**A:** > 5000 nM

**Q:** Now the same for CCC1(c2cccc(C(C)C)c2)C2=CN=NC2NC2=C1C(=O)CC(C)(C)C2 (configuration not stated) [US20250313563, Compound 801322]
**A:** < 100 nM

**Q:** Now consider CC[C@]1(c2cccc(Oc3ncccn3)c2)C2=CN=NC2NC2=C1C(=O)CC(C)(C)C2 (some centres not stated) [US20250313563, Compound 947818] and answer again.
**A:** 100 to 1000 nM

Next:
**Q:** // IC50 lookup, key: CCC1(c2cccc(-c3cnco3)c2)C2=CN=NC2NC2=C1C(=O)CC(C)(C)C2 (configuration not stated) [US20250313563, Compound 944025]
**A:** < 100 nM

**Q:** Try this molecule next: CCC1(c2cccc(-c3ccnc(C(F)(F)F)c3)c2)C2=C(CC(C)(C)CC2=O)NC2N=NC(C)=C21 (configuration not stated) [US20250313563, Compound 883989]
**A:** < 100 nM

###

target: UniProt P49840
# maps each entry to its IC50

Below: 4 compounds and their reported IC50.
**Q:** GET /values?readout=IC50&item= CC[C@]1(c2cccc(C(F)(F)F)c2)C2=CN=NC2NC2=C1C(=O)NC(C)(C)C2 (stereo not given in full)
**A:** > 5000 nM

**Q:** And what about the compound CC[C@]1(c2cccc(C(F)(F)F)c2)C2=CN=NC2NC2=C1C(=O)N[C@@H](C)C2 (stereo not given in full) ?
**A:** 100 to 1000 nM

**Q:** Another compound to check: CC[C@]1(c2cccc(-c3c(C)nn(C)c3C)c2)C2=C(CC(C)(C)CC2=O)NC2N=NC(C)=C21 (stereo not given in full)
**A:** < 100 nM

**Q:** How about CCC1(c2cccc(S(=O)(=O)Cc3ccccc3)c2)C2=CN=NC2NC2=C1C(=O)CC(C)(C)C2 (stereo not given) ?
**A:** < 100 nM

More entries:
**Q:** Reported IC50 for CCC1(c2cccc(N(C)c3cc(C)nc(C)c3)c2)C2=CN=NC2NC2=C1C(=O)CC(C)(C)C2 (stereo not given) : what is it?
**A:** 1000 to 5000 nM

###

Test system Glycogen synthase kinase-3 beta (Homo sapiens), IC50 listed for each of the compounds.

Worked examples follow.
**Q:** Recorded IC50 for CCC1(c2cccc(-c3ccncc3F)c2)C2=C(CC(C)(C)NC2=O)NC2N=NC(C(F)F)=C21 (stereo not drawn) [US20250313563, Compound 950320] , please?
**A:** < 100 nM

**Q:** Lookup CCc1cc(-c2cccc(C3(CC)C4=CN=NC4NC4=C3C(=O)CC(C)(C)C4)c2)ccn1 (stereo not drawn) [US20250313563, Compound 947493]
**A:** 100 to 1000 nM

New cases:
**Q:** For CC[C@]1(c2cccc(-c3ccnc(C)c3)c2)C2=CN=NC2NC2=C1C(=O)N[C@]1(CCOC1)C2 (stereo partly drawn) [US20250313563, Compound 948141] , what is its reported IC50?
**A:** > 5000 nM

###

target: UniProt:P49840
Item-by-item account of IC50

**Q:** Need IC50, item CC[C@]1(c2cccc(C(C)C)c2)C2=C(CC(C)(C)NC2=O)NC2N=NC(C(F)(F)F)=C21 (stereo partly drawn)
**A:** 100 to 1000 nM

**Q:** CC1(C)CC(=O)C2=C(C1)NC1N=NC(Br)=C1[C@@]21CCc2c(F)cccc21 (stereo partly drawn) ?
**A:** 100 to 1000 nM

Further cases:
**Q:** Reported IC50, molecule CN(C)C(=O)c1cccc(S(=O)(=O)N2CCC3(CC2)C2=C(N=NC2)NC2=C3C(=O)CC(C)(C)C2)c1 : ____
**A:** < 100 nM

###

Entries below carry reported pIC50 on Glycogen synthase kinase-3 alpha (Homo sapiens, UniProt P49840).
pIC50: −log10 of the molar value.

Sample records with pIC50:
**Q:** Would you mind telling me what pIC50 value was observed for C[C@@H]1C[C@]2(CCN1S(=O)(=O)c1ccn(C)n1)C1=C(N=NC1)NC1=C2C(=O)CC(C)(C)C1 [US20250313563, Compound 917161] ?
**A:** > 7.00

**Q:** And CC[C@@]1(c2cccc(CN(C)c3ccc(F)nc3)c2)C2=CN=NC2NC2=C1C(=O)CC(C)(C)C2 (stereo partly specified) [US20250313563, Compound 932667] ?
**A:** < 5.30

**Q:** Next entry: CC[C@@]1(c2cccc(-c3cn(C)nc3C)c2)C2=C(CC(C)(C)NC2=O)NC2N=NC(C(F)F)=C21 (stereo partly specified) [US20250313563, Compound 950497]
**A:** > 7.00

**Q:** Here is the next compound: CC1(C)CC2=C(C(=O)C1F)[C@]1(CC[C@H](C(F)(F)F)CC1)C1=C(N=NC1)N2 (stereo partly specified) [US20250313563, Compound 917133]
**A:** > 7.00

**Q:** CCC1(c2cccc(N(C)c3ccncn3)c2)C2=CN=NC2NC2=C1C(=O)CC(C)(C)C2 (stereo unspecified) [US20250313563, Compound 902970] , same question.
**A:** > 7.00

Moving on to another compound below.
**Q:** Any idea what pIC50 was measured for CCC1(c2cccc(S(C)(=O)=O)c2)C2=C(CC(C)(C)NC2=O)NC2N=NC(C)=C21 (stereo unspecified) [US20250313563, Compound 947395] ?
**A:** 6.00 to 7.00

###

List of pIC50 tested on Glycogen synthase kinase-3 beta (Homo sapiens, UniProt P49841).
Sequence (P49841 whole entry): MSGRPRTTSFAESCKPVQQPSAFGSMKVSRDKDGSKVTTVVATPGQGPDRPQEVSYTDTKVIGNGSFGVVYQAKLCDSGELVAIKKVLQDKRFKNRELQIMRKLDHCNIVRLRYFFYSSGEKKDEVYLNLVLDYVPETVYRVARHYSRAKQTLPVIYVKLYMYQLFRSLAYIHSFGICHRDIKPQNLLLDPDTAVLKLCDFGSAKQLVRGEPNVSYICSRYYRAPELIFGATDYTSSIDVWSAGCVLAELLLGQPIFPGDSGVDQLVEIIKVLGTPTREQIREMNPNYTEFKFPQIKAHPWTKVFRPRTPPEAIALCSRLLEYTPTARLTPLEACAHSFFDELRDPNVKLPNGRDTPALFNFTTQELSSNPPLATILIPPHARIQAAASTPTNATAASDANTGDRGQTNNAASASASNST
pIC50: −log10 of the molar value.

**Q:** Quick one: pIC50 of CC1N=NC2=C1C1(CC3(CCC3)C1)C1=C(CC(C)(C)CC1=O)N2 (stereo unspecified) [US20250313563, Compound 877295] ?
**A:** < 5.30

**Q:** // query: CC[C@]1(c2cccc(-c3ccnc4ccccc34)c2)C2=CN=NC2NC2=C1C(=O)CC(C)(C)C2 (stereo partly specified) [US20250313563, Compound 944034]
**A:** < 5.30

**Q:** Would you mind doing CCC1(c2cccc(N(C)c3cccc(F)n3)c2)C2=CN=NC2NC2=C1C(=O)CC(C)(C)C2 (stereo unspecified) [US20250313563, Compound 918274] as well?
**A:** 6.00 to 7.00

**Q:** Do the same for CC[C@@]1(c2cccc(C3=CNN4CC=CN=C34)c2)C2=CN=NC2NC2=C1C(=O)NC(C)(C)C2 (stereo partly specified) [US20250313563, Compound 950830] please
**A:** 6.00 to 7.00

**Q:** Again, but for Cc1c(S(=O)(=O)N2CCC3(CC2)C2=C(N=NC2)NC2=C3C(=O)CC(C)(C)C2)cnn1C [US20250313563, Compound 947460]
**A:** > 7.00

**Q:** Try this compound next: C[C@H]1C[C@]2(CCN1S(=O)(=O)c1ccn(C)n1)C1=C(N=NC1)NC1=C2C(=O)CC(C)(C)C1 [US20250313563, Compound 926815]
**A:** > 7.00

**Q:** Moving on to CCC1(c2cccc(-c3ccncc3C)c2)C2=CN=NC2NC2=C1C(=O)CC(C)(C)C2 (stereo unspecified) [US20250313563, Compound 913351]
**A:** > 7.00

**Q:** Check CC[C@]1(c2cccc(-c3ccnc4ccc(Cl)cc34)c2)C2=CN=NC2NC2=C1C(=O)NC(C)(C)C2 (stereo partly specified) [US20250313563, Compound 948530] too.
**A:** 5.30 to 6.00

###

biological target: Glycogen synthase kinase-3 alpha (Homo sapiens)
Entries and their IC50

**Q:** Form field - read-out: IC50; system: Glycogen synthase kinase-3 alpha (Homo sapiens); submitted item: C[C@@H]1CCC[C@@]12C1=CN=NC1NC1=C2C(=O)CC(C)(C)C1 (stereo partly drawn)
**A:** 1000 to 5000 nM

**Q:** Now the compound CC1=C2C(N=N1)NC1=C(C(=O)CC(C)(C)C1)C21CCCCC1 (stereo not drawn)
**A:** < 100 nM

**Q:** What about this compound? CC[C@@H]1CCN1c1cccc([C@@]2(CC)C3=CN=NC3NC3=C2C(=O)CC(C)(C)C3)c1 (stereo partly drawn)
**A:** < 100 nM
